- TARGET_SYSTEM: Keap1/Nrf2 (Homo sapiens) (UniProt Q16236+Q14145)
- Sequence (Q14145 whole entry, looked up): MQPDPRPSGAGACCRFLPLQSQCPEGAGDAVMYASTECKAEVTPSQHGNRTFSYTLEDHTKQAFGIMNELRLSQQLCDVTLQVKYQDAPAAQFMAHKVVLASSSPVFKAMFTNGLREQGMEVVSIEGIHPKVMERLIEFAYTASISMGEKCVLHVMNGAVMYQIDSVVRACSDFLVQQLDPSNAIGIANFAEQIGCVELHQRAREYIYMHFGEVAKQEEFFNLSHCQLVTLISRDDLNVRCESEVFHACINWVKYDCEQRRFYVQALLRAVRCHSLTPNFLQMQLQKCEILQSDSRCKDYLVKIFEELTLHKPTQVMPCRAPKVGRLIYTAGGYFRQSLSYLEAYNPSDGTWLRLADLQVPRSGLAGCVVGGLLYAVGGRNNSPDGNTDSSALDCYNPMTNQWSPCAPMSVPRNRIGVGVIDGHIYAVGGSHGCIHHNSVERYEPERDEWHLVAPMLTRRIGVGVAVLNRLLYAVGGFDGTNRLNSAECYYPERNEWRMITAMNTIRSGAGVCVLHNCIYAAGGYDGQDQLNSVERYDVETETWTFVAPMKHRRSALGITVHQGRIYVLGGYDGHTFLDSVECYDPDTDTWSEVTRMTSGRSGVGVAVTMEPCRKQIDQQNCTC
- Sequence (Q16236 whole entry, looked up): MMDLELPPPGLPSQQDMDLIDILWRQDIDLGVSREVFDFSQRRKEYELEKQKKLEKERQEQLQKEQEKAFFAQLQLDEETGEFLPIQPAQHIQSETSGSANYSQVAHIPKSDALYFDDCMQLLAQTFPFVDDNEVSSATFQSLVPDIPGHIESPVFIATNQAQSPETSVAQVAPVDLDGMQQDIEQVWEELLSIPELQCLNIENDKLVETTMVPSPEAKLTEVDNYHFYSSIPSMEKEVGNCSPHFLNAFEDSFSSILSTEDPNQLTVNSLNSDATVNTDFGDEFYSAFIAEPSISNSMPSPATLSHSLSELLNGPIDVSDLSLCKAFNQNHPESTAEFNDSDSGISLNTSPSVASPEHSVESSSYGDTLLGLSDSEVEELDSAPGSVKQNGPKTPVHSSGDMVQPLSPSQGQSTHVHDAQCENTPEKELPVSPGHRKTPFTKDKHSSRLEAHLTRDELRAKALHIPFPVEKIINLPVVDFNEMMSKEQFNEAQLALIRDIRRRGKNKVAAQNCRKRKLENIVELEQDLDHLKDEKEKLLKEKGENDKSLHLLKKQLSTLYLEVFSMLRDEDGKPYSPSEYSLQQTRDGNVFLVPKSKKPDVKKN
- ASSAY_DETAILS: Inhibition of Keap1-Nrf2 interaction in HEK293T cells assessed as induction of ARE-luciferase gene expression at 1 uM after 24 hrs relative to control
- Type: cell-based
- REPORTED_CONDITIONS: HEK-293T
Strictly below 1 in fold change (FC): label 1. Otherwise: label 0.

COMPOUND: COC(=O)C1=CC(C)(C)CC(CC#N)C1=O (stereo not drawn)
CAT: label 0
--
COMPOUND: COC(=O)C1CC(C)(C)C=CC1=O (stereo not drawn)
CAT: label 0
--
COMPOUND: CC1(C)C=C(Cl)C(=O)CC1
CAT: label 0
--
COMPOUND: COC(=O)C1=CC(C)(C)CC(CC(F)(F)F)C1=O (stereo not drawn)
CAT: label 1
--
COMPOUND: COC(=O)C1=CC(C)(C)CC(CC2CC(C)(C)C=C(C(=O)OC)C2=O)C1=O (stereo not drawn)
CAT: label 0

Q. In the record for "COC(=O)C1=CC(C)(C)CCC1=O" , is fold change (FC) less than 1?
A. label 0

Q. In the record for "CC1(C)C=C(CO)C(=O)CC1" , is fold change (FC) less than 1?
A. label 1

Q. In the record for COC(=O)C1=CC(C)(C)CC(CCCC2CC(C)(C)C=C(C(=O)OC)C2=O)C1=O (stereo not drawn) , is fold change (FC) less than 1?
A. label 0

---

- TARGET_SYSTEM: Keap1/Nrf2 (Homo sapiens) (UniProt Q16236+Q14145)
- ASSAY_DETAILS: Inhibition of Keap1-Nrf2 interaction in HEK293T cells assessed as induction of ARE-luciferase gene expression at 1 uM after 24 hrs relative to control
- Format: cell-based
- REPORTED_CONDITIONS: HEK-293T
Category | rule: reported fold change (FC) within range, see group 1 = under 1, group 2 = from 1 up to 2, group 3 = 2 and over

Worked examples follow.
COMPOUND: COC(=O)CCC1CC(C)(C)C=C(C(=O)OC)C1=O (configuration not stated)
CAT: group 1
//
COMPOUND: CCCCCCC1CC(C)(C)C=C(C(=O)OC)C1=O (configuration not stated)
CAT: group 2
//
COMPOUND: COC(=O)C1=CC(C)(C)C=CC1=O
CAT: group 2
//
COMPOUND: COC(=O)C1=CC(C)(C)CC(CC#CCC2CC(C)(C)C=C(C(=O)OC)C2=O)C1=O (configuration not stated)
CAT: group 3
//
COMPOUND: COC(=O)C1=CC(C)(C)CC(CC(C)=O)C1=O (configuration not stated)
CAT: group 1
//
COMPOUND: CC1(C)C=C(C(=O)OC(C)(C)C)C(=O)CC1
CAT: group 2

Q. Record "CC1(C)C=C(I)C(=O)CC1" — which class?
A. group 2

Q. Record COC(=O)C1=CC(C)(C)CC(C/C=C/CC2CC(C)(C)C=C(C(=O)OC)C2=O)C1=O (configuration not stated) — which class?
A. group 3

Q. Record COC(=O)C1=CC(C)(C)CC(Cc2ccccc2)C1=O (configuration not stated) — which class?
A. group 1

---

- TARGET_SYSTEM: Keap1/Nrf2 (Homo sapiens) (UniProt Q16236+Q14145)
- ASSAY_DETAILS: Inhibition of Keap1-Nrf2 interaction in HEK293T cells assessed as induction of ARE-luciferase gene expression at 20 uM after 24 hrs relative to control
- Format: cell-based
- REPORTED_CONDITIONS: HEK-293T
Strictly below 2 in fold change (FC): 1 (yes). Otherwise: 0 (no).

Worked examples follow.
MOLECULE: COC(=O)C1=CC(C)(C)CC(CC2CC(C)(C)C=C(C(=O)OC)C2=O)C1=O (stereo unspecified)
CAT: 0 (no)
--
MOLECULE: COC(=O)C1=CC2(CC(C)C1=O)OCCO2 (stereo unspecified)
CAT: 0 (no)
--
MOLECULE: CC1(C)C=C(C(=O)O)C(=O)CC1
CAT: 0 (no)
--
MOLECULE: COC(=O)C1(C)CC(C)(C)C=CC1=O (stereo unspecified)
CAT: 0 (no)
--
MOLECULE: CC1(C)C=C(Cl)C(=O)CC1
CAT: 0 (no)

Q. In the record for COC(=O)C1=CC(C)(C)CCC1O (stereo unspecified) , is fold change (FC) less than 2?
A. 1 (yes)

Q. In the record for COC(=O)C1CC(C)(C)C=CC1=O (stereo unspecified) , is fold change (FC) less than 2?
A. 0 (no)

Q. In the record for COC(=O)C1=CC(C)(C)CC(Cc2ccccc2)C1=O (stereo unspecified) , is fold change (FC) less than 2?
A. 1 (yes)

Q. In the record for COC(=O)C1=CC2(CC(CC3CC4(C=C(C(=O)OC)C3=O)OCCO4)C1=O)OCCO2 (stereo unspecified) , is fold change (FC) less than 2?
A. 0 (no)

Q. In the record for COC(=O)C1=CC2(CC(CCCC3CC4(C=C(C(=O)OC)C3=O)OCCO4)C1=O)OCCO2 (stereo unspecified) , is fold change (FC) less than 2?
A. 1 (yes)
